The measurements presented in this section are drawn from ChEMBL document CHEMBL5154832.

Assign MIC to each entry below.
System: Pseudomonas aeruginosa
Assay: Antibacterial activity against Pseudomonas aeruginosa ATCC27853 strain assessed as inhibition of bacterial growth incubated for 8 hrs by CLSI protocol based microdilution assay
Type: functional

Report MIC under test system Pseudomonas aeruginosa for "C[C@@H](O)[C@H](N)C(=O)N(CCCC(=O)NCCn1cnc2cc(Br)c(Cl)cc2c1=O)Cc1cccc(-c2ccc3c(c2)CNC3=O)c1" .
64 µg/mL

Report MIC under test system Pseudomonas aeruginosa for "C[C@@H](O)[C@H](N)C(=O)N[C@@H](CNC(=O)CCn1cnc2cc(Br)c(Cl)cc2c1=O)c1cccc(-c2ccc3[nH]ncc3c2)c1" .
≥ 128 µg/mL

Report MIC under test system Pseudomonas aeruginosa for "C[C@@H](O)[C@H](N)C(=O)N(CCC(=O)NCCn1cnc2cc(Br)c(Cl)cc2c1=O)Cc1cccc(-c2ccc3c(c2)CNC3=O)c1" .
64 µg/mL

Report MIC under test system Pseudomonas aeruginosa for "C[C@@H](O)[C@H](N)C(=O)NS(=O)(=O)c1cccc(-c2ccc3[nH]ncc3c2)c1" .
≥ 128 µg/mL

Report MIC under test system Pseudomonas aeruginosa for "C[C@@H](O)[C@H](N)C(=O)N[C@@H](CNC(=O)CCn1cnc2cc(Br)c(Cl)cc2c1=O)c1cccc(-c2ccc3ccccc3c2)c1" .
4 µg/mL

Report MIC under test system Pseudomonas aeruginosa for CC1(C)S[C@@H]2[C@H](NC(=O)[C@H](N)c3ccccc3)C(=O)N2[C@H]1C(=O)O [AMPICILLIN] .
1 µg/mL

Report MIC under test system Pseudomonas aeruginosa for "C[C@@H](O)[C@H](N)C(=O)N[C@@H](CNC(=O)CCn1cnc2cc(Cl)c(F)cc2c1=O)c1cccc(-c2ccccc2)c1" .
16 µg/mL

Report MIC under test system Pseudomonas aeruginosa for "C[C@@H](O)[C@H](N)C(=O)N(CCCCCCn1cnc2cc(Br)c(Cl)cc2c1=O)Cc1cccc(-c2ccc3c(c2)CNC3=O)c1" .
64 µg/mL

Report MIC under test system Pseudomonas aeruginosa for "C[C@@H](O)[C@H](N)C(=O)N[C@@H](CNC(=O)CCn1cnc2cc(Cl)c(Cl)cc2c1=O)c1cccc(-c2ccccc2)c1" .
16 µg/mL

Report MIC under test system Pseudomonas aeruginosa for "C[C@@H](O)[C@H](N)C(=O)N[C@@H](CNC(=O)CCn1cnc2cc(Cl)c(Cl)cc2c1=O)c1cccc(-c2ccc3c(c2)CNC3=O)c1" .
≥ 128 µg/mL

Report MIC under test system Pseudomonas aeruginosa for "C[C@@H](O)[C@H](N)C(=O)NCC=CCn1cnc2cc(Cl)c(Cl)cc2c1=O" .
≥ 128 µg/mL

Report MIC under test system Pseudomonas aeruginosa for "C[C@@H](O)[C@H](N)C(=O)N[C@@H](CNC(=O)CCn1cnc2cc(Br)c(Cl)cc2c1=O)c1cccc(-c2ccc3[nH]ccc3c2)c1" .
32 µg/mL

Report MIC under test system Pseudomonas aeruginosa for "CN[C@H](C(=O)N[C@@H](CNC(=O)CCn1cnc2cc(Cl)c(F)cc2c1=O)c1cccc(-c2ccccc2)c1)[C@@H](C)O" .
16 µg/mL

Report MIC under test system Pseudomonas aeruginosa for "C[C@@H](O)[C@H](N)C(=O)N[C@@H](CNC(=O)CCn1cnc2cc(Br)c(Cl)cc2c1=O)c1cccc(-c2ccc3c(N)ncnc3c2)c1" .
≥ 128 µg/mL
